settings: in acetone, 318.15 K
Test Readout: solubility (mole fraction)

Qu. # input compound: O=C1OC(=O)[C@H]2[C@@H]1[C@H]1C=C[C@@H]2C1 ; wanted: its solubility (mole fraction)
Ans. 0.308

====

conditions: in ethyl acetate, 278.15 K
Test Readout: solubility (mole fraction)
Hey, just send me the number, nothing else.

Qu. # input compound: O=C1OC(=O)[C@H]2[C@@H]1[C@H]1C=C[C@@H]2C1 ; wanted: its solubility (mole fraction)
Ans. 0.0719

====

details: in isopentyl acetate, 313.15 K
Test Readout: solubility (mole fraction)
Hey, just send me the number, nothing else.

Qu. # input molecule: O=C1OC(=O)[C@H]2[C@@H]1[C@H]1C=C[C@@H]2C1 ; wanted: its solubility (mole fraction)
Ans. 0.125

====

details: in isopropyl acetate, 288.15 K
Test Readout: solubility (mole fraction)
Hey, just send me the number, nothing else.

Qu. # input compound: O=C1OC(=O)[C@H]2[C@@H]1[C@H]1C=C[C@@H]2C1 ; wanted: its solubility (mole fraction)
Ans. 0.0745

====

settings: in methyl acetate, 323.15 K
Test Readout: solubility (mole fraction)
Hey, just send me the number, nothing else.

Qu. # input molecule: O=C1OC(=O)[C@H]2[C@@H]1[C@H]1C=C[C@@H]2C1 ; wanted: its solubility (mole fraction)
Ans. 0.298

====

conditions: in n-propyl acetate, 318.15 K
Test Readout: solubility (mole fraction)
Hey, just send me the number, nothing else.

Qu. # input molecule: O=C1OC(=O)[C@H]2[C@@H]1[C@H]1C=C[C@@H]2C1 ; wanted: its solubility (mole fraction)
Ans. 0.191

====

conditions: in NMP, 278.15 K
Test Readout: solubility (mole fraction)
Hey, just send me the number, nothing else.

Qu. # input compound: O=C1OC(=O)[C@H]2[C@@H]1[C@H]1C=C[C@@H]2C1 ; wanted: its solubility (mole fraction)
Ans. 0.257

====

conditions: in n-butyl acetate, 283.15 K
Test Readout: solubility (mole fraction)
Hey, just send me the number, nothing else.

Qu. # input compound: O=C1OC(=O)[C@H]2[C@@H]1[C@H]1C=C[C@@H]2C1 ; wanted: its solubility (mole fraction)
Ans. 0.0614

====

conditions: in isopentyl acetate, 288.15 K
Test Readout: solubility (mole fraction)
Hey, just send me the number, nothing else.

Qu. # input compound: O=C1OC(=O)[C@H]2[C@@H]1[C@H]1C=C[C@@H]2C1 ; wanted: its solubility (mole fraction)
Ans. 0.0608

====

settings: in n-pentyl acetate, 283.15 K
Test Readout: solubility (mole fraction)
Hey, just send me the number, nothing else.

Qu. # input compound: O=C1OC(=O)[C@H]2[C@@H]1[C@H]1C=C[C@@H]2C1 ; wanted: its solubility (mole fraction)
Ans. 0.0526

====

settings: in isopentyl acetate, 293.15 K
Test Readout: solubility (mole fraction)
Hey, just send me the number, nothing else.

Qu. # input compound: O=C1OC(=O)[C@H]2[C@@H]1[C@H]1C=C[C@@H]2C1 ; wanted: its solubility (mole fraction)
Ans. 0.07

====

conditions: in ethanol, 278.15 K
Test Readout: solubility (mole fraction)
Hey, just send me the number, nothing else.

Qu. # input molecule: O=C1OC(=O)[C@H]2[C@@H]1[C@H]1C=C[C@@H]2C1 ; wanted: its solubility (mole fraction)
Ans. 0.00405

====

conditions: in n-butyl acetate, 308.15 K
Test Readout: solubility (mole fraction)

Qu. # input compound: O=C1OC(=O)[C@H]2[C@@H]1[C@H]1C=C[C@@H]2C1 ; wanted: its solubility (mole fraction)
Ans. 0.128

====

conditions: in n-propyl acetate, 303.15 K
Test Readout: solubility (mole fraction)
Hey, just send me the number, nothing else.

Qu. # input compound: O=C1OC(=O)[C@H]2[C@@H]1[C@H]1C=C[C@@H]2C1 ; wanted: its solubility (mole fraction)
Ans. 0.13

====

conditions: in ethyl acetate, 308.15 K
Test Readout: solubility (mole fraction)
Hey, just send me the number, nothing else.

Qu. # input compound: O=C1OC(=O)[C@H]2[C@@H]1[C@H]1C=C[C@@H]2C1 ; wanted: its solubility (mole fraction)
Ans. 0.176

====

settings: in n-pentyl acetate, 278.15 K
Test Readout: solubility (mole fraction)
Hey, just send me the number, nothing else.

Qu. # input compound: O=C1OC(=O)[C@H]2[C@@H]1[C@H]1C=C[C@@H]2C1 ; wanted: its solubility (mole fraction)
Ans. 0.0448

====

conditions: in octyl acetate, 308.15 K
Test Readout: solubility (mole fraction)
Hey, just send me the number, nothing else.

Qu. # input molecule: O=C1OC(=O)[C@H]2[C@@H]1[C@H]1C=C[C@@H]2C1 ; wanted: its solubility (mole fraction)
Ans. 0.0774

====

settings: in octyl acetate, 283.15 K
Test Readout: solubility (mole fraction)
Hey, just send me the number, nothing else.

Qu. # input compound: O=C1OC(=O)[C@H]2[C@@H]1[C@H]1C=C[C@@H]2C1 ; wanted: its solubility (mole fraction)
Ans. 0.036

====

conditions: in acetone, 278.15 K
Test Readout: solubility (mole fraction)
Hey, just send me the number, nothing else.

Qu. # input molecule: O=C1OC(=O)[C@H]2[C@@H]1[C@H]1C=C[C@@H]2C1 ; wanted: its solubility (mole fraction)
Ans. 0.13

====

settings: in n-butyl acetate, 288.15 K
Test Readout: solubility (mole fraction)

Qu. # input molecule: O=C1OC(=O)[C@H]2[C@@H]1[C@H]1C=C[C@@H]2C1 ; wanted: its solubility (mole fraction)
Ans. 0.0725

====

conditions: in n-hexyl acetate, 298.15 K
Test Readout: solubility (mole fraction)
Hey, just send me the number, nothing else.

Qu. # input compound: O=C1OC(=O)[C@H]2[C@@H]1[C@H]1C=C[C@@H]2C1 ; wanted: its solubility (mole fraction)
Ans. 0.0717

====

details: in 1,4-dioxane, 308.15 K
Test Readout: solubility (mole fraction)
Hey, just send me the number, nothing else.

Qu. # input compound: O=C1OC(=O)[C@H]2[C@@H]1[C@H]1C=C[C@@H]2C1 ; wanted: its solubility (mole fraction)
Ans. 0.273

====

details: in ethanol, 288.15 K
Test Readout: solubility (mole fraction)
Hey, just send me the number, nothing else.

Qu. # input molecule: O=C1OC(=O)[C@H]2[C@@H]1[C@H]1C=C[C@@H]2C1 ; wanted: its solubility (mole fraction)
Ans. 0.00707

====

details: in ethanol, 298.15 K
Test Readout: solubility (mole fraction)
Hey, just send me the number, nothing else.

Qu. # input compound: O=C1OC(=O)[C@H]2[C@@H]1[C@H]1C=C[C@@H]2C1 ; wanted: its solubility (mole fraction)
Ans. 0.0117

====

conditions: in n-hexyl acetate, 283.15 K
Test Readout: solubility (mole fraction)
Hey, just send me the number, nothing else.

Qu. # input molecule: O=C1OC(=O)[C@H]2[C@@H]1[C@H]1C=C[C@@H]2C1 ; wanted: its solubility (mole fraction)
Ans. 0.0447

====

settings: in DMF, 323.15 K
Test Readout: solubility (mole fraction)
Hey, just send me the number, nothing else.

Qu. # input compound: O=C1OC(=O)[C@H]2[C@@H]1[C@H]1C=C[C@@H]2C1 ; wanted: its solubility (mole fraction)
Ans. 0.419

====

details: in n-pentyl acetate, 303.15 K
Test Readout: solubility (mole fraction)
Hey, just send me the number, nothing else.

Qu. # input compound: O=C1OC(=O)[C@H]2[C@@H]1[C@H]1C=C[C@@H]2C1 ; wanted: its solubility (mole fraction)
Ans. 0.0964

====

conditions: in DMF, 293.15 K
Test Readout: solubility (mole fraction)

Qu. # input compound: O=C1OC(=O)[C@H]2[C@@H]1[C@H]1C=C[C@@H]2C1 ; wanted: its solubility (mole fraction)
Ans. 0.267

====

settings: in NMP, 303.15 K
Test Readout: solubility (mole fraction)
Hey, just send me the number, nothing else.

Qu. # input compound: O=C1OC(=O)[C@H]2[C@@H]1[C@H]1C=C[C@@H]2C1 ; wanted: its solubility (mole fraction)
Ans. 0.345

====

details: in n-hexyl acetate, 288.15 K
Test Readout: solubility (mole fraction)
Hey, just send me the number, nothing else.

Qu. # input molecule: O=C1OC(=O)[C@H]2[C@@H]1[C@H]1C=C[C@@H]2C1 ; wanted: its solubility (mole fraction)
Ans. 0.0525

====

settings: in octyl acetate, 288.15 K
Test Readout: solubility (mole fraction)
Hey, just send me the number, nothing else.

Qu. # input compound: O=C1OC(=O)[C@H]2[C@@H]1[C@H]1C=C[C@@H]2C1 ; wanted: its solubility (mole fraction)
Ans. 0.0424

====

conditions: in octyl acetate, 313.15 K
Test Readout: solubility (mole fraction)
Hey, just send me the number, nothing else.

Qu. # input compound: O=C1OC(=O)[C@H]2[C@@H]1[C@H]1C=C[C@@H]2C1 ; wanted: its solubility (mole fraction)
Ans. 0.0875

====

conditions: in 1,4-dioxane, 313.15 K
Test Readout: solubility (mole fraction)
Hey, just send me the number, nothing else.

Qu. # input molecule: O=C1OC(=O)[C@H]2[C@@H]1[C@H]1C=C[C@@H]2C1 ; wanted: its solubility (mole fraction)
Ans. 0.304
